measured.target: T1, P2-AA-1HGe-M
T1 chain: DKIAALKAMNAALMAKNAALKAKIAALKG
test.name: two-hybrid library CCmax;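 note: natural log of median RNA to DNA barcode read ratio; higher means stronger binding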
experimental.context: mean of both orientations
measured.attribute: interaction score

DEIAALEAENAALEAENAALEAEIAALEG [P1-AA]
1.87
DEIAALEARNAALRAENAALEAEIAALEG [P1-AA-1HGe-R]
1.7
DEIAALEASNAALSAENAALEAEIAALEG [P1-AA-1HGe-S]
2.01
DEIAALEATNAALTAENAALEAEIAALEG [P1-AA-1HGe-T]
1.53
DEIAALEAMNAALMAENAALEAEIAALEG [P1-AA-1HGe-M]
2.29
DEIAALEAHNAALHAENAALEAEIAALEG [P1-AA-1HGe-H]
1.8
DEIAALEAQNAALQAENAALEAEIAALEG [P1-AA-1HGe-Q]
2.05
